measurement description: Delivery vehicle size and polydispersity by dynamic light scattering
Assay type: physicochemical
test conditions: DLS in PBS; peptoid:DSPC:Cholesterol:DMG-PEG2000 weight ratio 20:1.79:7.16:1.84, mRNA
Non-standard residues stand in square brackets, D forms with d. Residues, ends and D or L forms follow the SMILES beside them. Gly(N-(3-decanoyloxypropyl)) = CCCCCCCCCC(=O)OCCCNCC(=O)O; N(3-imidazol-1-ylpropyl)Gly = O=C(O)CNCCCn1ccnc1; N(2-ethylhexyl)Gly = CCCCC(CC)CNCC(=O)O
property label: Particle Size (nm)
Report the figure in nm without appending any unit label.

Give me measured Particle Size, please, for this compound: CCCCCCCCCC(=O)OCCCN(CC(=O)N(CC(=O)N(CC(=O)N(CCCOC(=O)CCCCCCCCC)CC(=O)N(CC(N)=O)CC(CC)CCCC)CC(CC)CCCC)CC(CC)CCCC)C(=O)CN(CC(CC)CCCC)C(=O)CNCCCn1ccnc1 (stereo not shown) [Compound 107] (H-[N(3-imidazol-1-ylpropyl)Gly][N(2-ethylhexyl)Gly][Gly(N-(3-decanoyloxypropyl))][N(2-ethylhexyl)Gly][N(2-ethylhexyl)Gly][Gly(N-(3-decanoyloxypropyl))][N(2-ethylhexyl)Gly]-NH2)
77.4

---

System: mRNA
measurement description: mRNA encapsulation (modified Quant-iT RiboGreen assay)
Type: physicochemical
test conditions: RiboGreen, without vs with Triton X-100
Non-standard residues stand in square brackets, D forms with d. Residues, ends and D or L forms follow the SMILES beside them. *: point of attachment. Gly(N-(3-decanoyloxypropyl)) = CCCCCCCCCC(=O)OCCCNCC(=O)O; N(3-lauroyloxypropyl)Gly = CCCCCCCCCCCC(=O)OCCCNCC(=O)O; N(3-imidazol-1-ylpropyl)Gly = O=C(O)CNCCCn1ccnc1; N(2-ethylhexyl)Gly = CCCCC(CC)CNCC(=O)O; N(CH(CH2OH)2)Gly = O=C(O)CNC(CO)CO; NHexGly = CCCCCCNCC(=O)O; For = O=C*
Please go through the items and note down their mean percent encapsulation of RNA.
Report the figure in % without appending any unit label.

# lookup: mRNA mean percent encapsulation of RNA, key = CCCCCCCCCCCC(=O)OCCN(CC(=O)N(CCOC(=O)CCCCCCCCCCC)CC(=O)N(CC(=O)N(CCOC(=O)CCCCCCCCCCC)CC(=O)N(CCOC(=O)CCCCCCCCCCC)CC(=O)N(CC(N)=O)CC(CC)CCCC)CC(CC)CCCC)C(=O)CN(C=O)CCCN1CCOCC1 (centres unmarked) [Compound 65]
39.1

# lookup: mRNA mean percent encapsulation of RNA, key = CCCCCCCCCC(=O)OCCCN(CC(N)=O)C(=O)CN(CC(CC)CCCC)C(=O)CN(CCCOC(=O)CCCCCCCCC)C(=O)CN(CCCOC(=O)CCCCCCCCC)C(=O)CN(CC(CC)CCCC)C(=O)CN(CCCOC(=O)CCCCCCCCC)C(=O)CNC(CO)CO (centres unmarked) [Compound 53] (H-[N(CH(CH2OH)2)Gly][Gly(N-(3-decanoyloxypropyl))][N(2-ethylhexyl)Gly][Gly(N-(3-decanoyloxypropyl))][Gly(N-(3-decanoyloxypropyl))][N(2-ethylhexyl)Gly][Gly(N-(3-decanoyloxypropyl))]-NH2)
36.0

# lookup: mRNA mean percent encapsulation of RNA, key = CCCCCCCCCCCC(=O)OCCCN(CC(=O)N(CC(=O)N(CCCCCC)CC(=O)N(CCCOC(=O)CCCCCCCCCCC)CC(=O)N(CC(=O)N(CCCCCC)CC(N)=O)CC(CC)CCCC)CC(CC)CCCC)C(=O)CNCCCn1ccnc1 (centres unmarked) [Compound 72] (H-[N(3-imidazol-1-ylpropyl)Gly][N(3-lauroyloxypropyl)Gly][N(2-ethylhexyl)Gly][NHexGly][N(3-lauroyloxypropyl)Gly][N(2-ethylhexyl)Gly][NHexGly]-NH2)
89.2

# lookup: mRNA mean percent encapsulation of RNA, key = CCCCCCCCCCCC(=O)OCCCN(CC(=O)N(CC(=O)N(CCCn1ccnc1)CC(=O)N(CC(=O)N(CCCOC(=O)CCCCCCCCCCC)CC(=O)N(CC(N)=O)CC(CC)CCCC)CC(CC)CCCC)CC(CC)CCCC)C(=O)CN(C=O)CC(CC)CCCC (centres unmarked) [Compound 82] (For-[N(2-ethylhexyl)Gly][N(3-lauroyloxypropyl)Gly][N(2-ethylhexyl)Gly][N(3-imidazol-1-ylpropyl)Gly][N(2-ethylhexyl)Gly][N(3-lauroyloxypropyl)Gly][N(2-ethylhexyl)Gly]-NH2)
70.7

# lookup: mRNA mean percent encapsulation of RNA, key = CCCCCCCCCCCC(=O)OCCCN(CC(=O)N(CCCOC(=O)CCCCCCCCCCC)CC(=O)N(CC(=O)N(CCCOC(=O)CCCCCCCCCCC)CC(=O)N(CCCOC(=O)CCCCCCCCCCC)CC(=O)N(CC(N)=O)CC(CC)CCCC)CC(CC)CCCC)C(=O)CNCCCn1ccnc1 (centres unmarked) [Compound 68] (H-[N(3-imidazol-1-ylpropyl)Gly][N(3-lauroyloxypropyl)Gly][N(3-lauroyloxypropyl)Gly][N(2-ethylhexyl)Gly][N(3-lauroyloxypropyl)Gly][N(3-lauroyloxypropyl)Gly][N(2-ethylhexyl)Gly]-NH2)
79.7

---

Please go through the items and note down their hEPO.
System: hEPO
measurement description: Quantification of hEPO in serum after IV injection of mRNA (Human EPO ELISA)
Type: in vivo
test conditions: Balb/c mice, 2.5 μg mRNA IV, serum after 6 hours
Protocol: Balb/c mice were treated with 2.5 μg of mRNA coding for human erythropoiten via IV injection according to a similar method as in Example 4. hEPO protein in the serum was quantified after 6 hours using the Human EPO ELISA Kit from Invitrogen (catalog #BMS2035-2). […] 100 μL of the diluted streptavidin-HRP was added to each well and the plate was sealed and shaken for 15 minutes at room temperature. […] Absorbance was then read at 450 nm for each well. […]
Non-standard residues stand in square brackets, D forms with d. Residues, ends and D or L forms follow the SMILES beside them. *: point of attachment. Gly(N-(3-decanoyloxypropyl)) = CCCCCCCCCC(=O)OCCCNCC(=O)O; N(3-lauroyloxypropyl)Gly = CCCCCCCCCCCC(=O)OCCCNCC(=O)O; N(3-imidazol-1-ylpropyl)Gly = O=C(O)CNCCCn1ccnc1; Gly(N-3-morpholinopropyl) = O=C(O)CNCCCN1CCOCC1; N(2-ethylhexyl)Gly = CCCCC(CC)CNCC(=O)O; N(CH(CH2OH)2)Gly = O=C(O)CNC(CO)CO; NDecylGly = CCCCCCCCCCNCC(=O)O; NHexGly = CCCCCCNCC(=O)O; For = O=C*
Report the figure in ng/mL without appending any unit label.

Give me measured hEPO, please, for this compound: CCCCCCCCCCCC(=O)OCCCN(CC(=O)N(CC(=O)N(CCCCCC)CC(=O)N(CCCOC(=O)CCCCCCCCCCC)CC(=O)N(CC(=O)N(CCCCCC)CC(N)=O)CC(CC)CCCC)CC(CC)CCCC)C(=O)CNCCCn1ccnc1 (stereo not shown) [Compound 72] (H-[N(3-imidazol-1-ylpropyl)Gly][N(3-lauroyloxypropyl)Gly][N(2-ethylhexyl)Gly][NHexGly][N(3-lauroyloxypropyl)Gly][N(2-ethylhexyl)Gly][NHexGly]-NH2)
36

Give me measured hEPO, please, for this compound: CCCCCCCCCC(=O)OCCCN(CC(=O)N(CCCOC(=O)CCCCCCCCC)CC(=O)N(CCCCCC)CC(=O)N(CCCOC(=O)CCCCCCCCC)CC(=O)N(CCCOC(=O)CCCCCCCCC)CC(=O)N(CCCCCC)CC(N)=O)C(=O)CN(C=O)CCCN1CCOCC1 [Compound 108] (For-[Gly(N-3-morpholinopropyl)][Gly(N-(3-decanoyloxypropyl))][Gly(N-(3-decanoyloxypropyl))][NHexGly][Gly(N-(3-decanoyloxypropyl))][Gly(N-(3-decanoyloxypropyl))][NHexGly]-NH2)
377

Give me measured hEPO, please, for this compound: CCCCCCCCCCN(CC(=O)N(CC(=O)N(CCCOC(=O)CCCCCCCCC)CC(N)=O)CC(CC)CCCC)C(=O)CN(CC(CC)CCCC)C(=O)CN(CCCOC(=O)CCCCCCCCC)C(=O)CN(CC(CC)CCCC)C(=O)CNC(CO)CO (stereo not shown) [Compound 58] (H-[N(CH(CH2OH)2)Gly][N(2-ethylhexyl)Gly][Gly(N-(3-decanoyloxypropyl))][N(2-ethylhexyl)Gly][NDecylGly][N(2-ethylhexyl)Gly][Gly(N-(3-decanoyloxypropyl))]-NH2)
386

Give me measured hEPO, please, for this compound: CCCCCCCCCCCC(=O)OCCCN(CC(=O)N(CCCOC(=O)CCCCCCCCCCC)CC(=O)N(CCCCCC)CC(=O)N(CCCOC(=O)CCCCCCCCCCC)CC(=O)N(CCCOC(=O)CCCCCCCCCCC)CC(=O)N(CCCCCC)CC(N)=O)C(=O)CNCCCn1ccnc1 [Compound 73] (H-[N(3-imidazol-1-ylpropyl)Gly][N(3-lauroyloxypropyl)Gly][N(3-lauroyloxypropyl)Gly][NHexGly][N(3-lauroyloxypropyl)Gly][N(3-lauroyloxypropyl)Gly][NHexGly]-NH2)
27.8
